experiment: Lipophilicity, log D of the compound at pH 7.4 by chromatographic method; format: physicochemical; conditions: buffer
Kindly state chromatographic logD for each of the entries shown.
Numbers only.

Examples with their reported chromatographic logD follow.
For `O=C(NCCCCN=C=S)NC1CCCC1` , what is its reported chromatographic logD? 4.1

Now consider `CC(C)(C)OC(=O)N1CCC(SC(=S)NCCCCNC(=O)NC2CCCC2)CC1` and answer again. 6.1

Now consider `CN1CCC(SC(=S)NCCCCNC(=O)Nc2ccc3ncsc3c2)CC1` and answer again. 1.91

Now consider `O=C(CCCCN=C=S)NCc1ccccc1` and answer again. 4.59

Below are some compounds; for each one, tell me its chromatographic logD.
1. CN1CCC(SC(=S)NCCCCNC(=O)Oc2ccccc2)CC1
2. Cl.O=C(NCCCCNC(=S)SC1CCNCC1)NC1CCCC1
3. CN1CCC(SC(=S)NCCCCNC(=O)OCc2ccccn2)CC1
4. Cc1ccccc1S(=O)(=O)CCCCN=C=S
5. O=S(=O)(CC1(N2CCC(CN=C=S)C2)COC1)c1ccccc1 (configuration not stated)
6. CN1CCC(SC(=S)NCCCCNC(=O)Nc2ccc3c(c2)OCO3)CC1
7. CN1CCC(SC(=S)NCCCCS(=O)(=O)c2ccncc2)CC1
8. COC(=O)C(C[S+]([O-])CCCCN=C=S)NC(C)=O (configuration not stated)

1. 0.9
2. 1.52
3. 1.83
4. 5.52
5. 5.02
6. 2.46
7. 1.56
8. 1.61

###

test: Lipophilicity, log D of the compound at pH 7.4 by chromatographic method; assay type: physicochemical; conditions: buffer
quantity: chromatographic logD
Numbers only.

For C[S+]([O-])CCCCCCN=C=S (stereo unspecified) , what is its reported chromatographic logD? 0.9

Now consider `CN1CCC(SC(=S)NCCCCNC(=O)OCc2ccccc2)CC1` and answer again. 3.49

Now consider COC(=O)C(CS(=O)(=O)CCCCN=C=S)NC(C)=O (stereo unspecified) and answer again. 2.44

Now consider `CN(C)CCCS(=O)(=O)CCCCN=C=S` and answer again. 1.55

Now consider CN(C)CCC[S+]([O-])CCCCN=C=S (stereo unspecified) and answer again. 0.81

Below are some compounds; for each one, tell me its chromatographic logD.
1. O=C(NCCCCN=C=S)OCc1ccncc1
2. O=S(=O)(/C=C(\CO)CN1CCC(CN=C=S)CC1)c1ccccc1
3. CN1CCC(SC(=S)NCCCCNC(=O)NCc2ccccc2)CC1
4. O=S1(=O)CCN(CCN=C=S)CC1
5. CN1CCC(SC(=S)NCCCCNC(=O)Nc2ccncc2)CC1
6. CN1CCC(SC(=S)NCCCCNC(=O)CC2CCCCC2)CC1
7. O=S(=O)(CCCCN=C=S)CCN1CCOCC1

3.5
7.09
2.4
2.33
1.02
3.28
2.93

Below are some compounds; for each one, tell me its chromatographic logD.
1. O=C(NCCCCN=C=S)OCc1ccccc1Cl
2. O=S(=O)(CC1(N2CCC(CN=C=S)CC2)COC1)c1ccccc1
3. CC(C)(C)OC(=O)N1CCC(SC(=S)NCCCCNC(=O)Nc2ccc3c(c2)OCCO3)CC1
4. CN1CCC(SC(=S)NCC2CCS(=O)(=O)C2)CC1 (stereo unspecified)
5. CC(C)(C)OC(=O)N1CCC(SC(=S)NCCCCNC(=O)OCc2ccccc2Cl)CC1
6. CC(C)(C)OC(=O)N1CCC(SC(=S)NCCCCNC(=O)Nc2ccc3ncsc3c2)CC1
7. O=C(NCCCCN=C=S)Nc1ccc2c(c1)OCO2

6.35
5.41
5.79
1.03
7.72
5.45
4.25

Below are some compounds; for each one, tell me its chromatographic logD.
1. O=C(NCCCCN=C=S)c1cccnc1
2. O=C(NCCCCN=C=S)c1ccncc1
3. CN1CCC(SC(=S)NCCCCNC(=O)Nc2cccnc2)CC1
4. C[S+]([O-])CCCCNC(=S)SC1CCN(C(=O)OC(C)(C)C)CC1 (stereo unspecified)
5. C[S+]([O-])CCCCNC(=S)SCCNC(=O)OC(C)(C)C (stereo unspecified)

1. 2.63
2. 2.86
3. 1.11
4. 4.23
5. 3.12

Below are some compounds; for each one, tell me its chromatographic logD.
1. CCCCNCCSC(=S)NCCCC[S+](C)[O-] (stereo unspecified)
2. CC(C)(C)OC(=O)N1CCC(SC(=S)NCCCCNC(=O)Nc2cccnc2)CC1

1: 4.34; 2: 4.97

###

Kindly state pIC50 for each of the entries shown.
target: Keap1/Nrf2 (Homo sapiens, UniProt Q14145+Q16236); test: Binding affinity to FLAG/His-tagged Keap1 (unknown origin)/biotinylated full-length FLAG/His/Tev/Avi-tagged NRF2 (unknown origin) expressed in baculovirus infected Sf9 insect cells measured after 1 hr by TR-FRET assay
Sequence (Q16236 whole entry): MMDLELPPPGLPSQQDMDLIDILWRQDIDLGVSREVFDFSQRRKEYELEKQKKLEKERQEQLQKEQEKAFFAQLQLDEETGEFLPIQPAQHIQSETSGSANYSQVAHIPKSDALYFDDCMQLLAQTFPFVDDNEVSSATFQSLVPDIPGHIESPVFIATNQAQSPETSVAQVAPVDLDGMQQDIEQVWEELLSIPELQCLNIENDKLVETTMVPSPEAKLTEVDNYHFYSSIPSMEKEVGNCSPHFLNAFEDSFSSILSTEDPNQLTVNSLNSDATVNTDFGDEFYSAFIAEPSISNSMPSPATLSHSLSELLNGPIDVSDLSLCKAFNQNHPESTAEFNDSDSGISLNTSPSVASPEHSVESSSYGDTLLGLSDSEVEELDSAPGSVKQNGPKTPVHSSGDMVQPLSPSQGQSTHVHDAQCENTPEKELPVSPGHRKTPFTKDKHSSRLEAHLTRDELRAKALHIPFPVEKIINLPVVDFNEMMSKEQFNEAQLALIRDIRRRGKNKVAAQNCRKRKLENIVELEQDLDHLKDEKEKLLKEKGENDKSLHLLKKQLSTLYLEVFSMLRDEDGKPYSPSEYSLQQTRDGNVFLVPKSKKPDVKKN
Sequence (Q14145 whole entry): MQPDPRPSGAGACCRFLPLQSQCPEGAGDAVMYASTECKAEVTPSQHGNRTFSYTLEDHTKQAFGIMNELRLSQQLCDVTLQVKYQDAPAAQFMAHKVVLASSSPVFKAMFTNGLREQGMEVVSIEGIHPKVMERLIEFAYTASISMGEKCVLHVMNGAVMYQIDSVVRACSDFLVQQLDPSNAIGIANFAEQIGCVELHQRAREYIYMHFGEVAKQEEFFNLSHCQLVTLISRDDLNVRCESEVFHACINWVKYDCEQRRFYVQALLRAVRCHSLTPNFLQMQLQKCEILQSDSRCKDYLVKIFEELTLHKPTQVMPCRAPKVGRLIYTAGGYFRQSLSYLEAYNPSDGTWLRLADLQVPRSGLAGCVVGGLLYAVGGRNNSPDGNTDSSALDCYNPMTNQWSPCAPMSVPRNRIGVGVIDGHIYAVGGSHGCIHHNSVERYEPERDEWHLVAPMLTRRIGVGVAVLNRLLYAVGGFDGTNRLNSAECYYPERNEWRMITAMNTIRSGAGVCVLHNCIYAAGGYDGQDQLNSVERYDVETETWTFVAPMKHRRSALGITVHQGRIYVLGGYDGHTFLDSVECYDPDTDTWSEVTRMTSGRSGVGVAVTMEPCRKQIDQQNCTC
Numbers only, as −log10 of the molar value.

Examples with their reported pIC50 follow.
Item: `O=C(NCCCCN=C=S)c1ccno1` Test system: Keap1/Nrf2 (Homo sapiens, UniProt Q14145+Q16236) Read-out: pIC50 Value: ? 4.20

Now consider `O=C(NCCCCN=C=S)NCc1ccccc1` and answer again. 4.80

Now consider `CC(C)(C)OC(=O)N1CCC(SC(=S)NCCCCNC(=O)Nc2ccc3nccnc3c2)CC1` and answer again. 4.80

Now consider O=S(=O)(CC1(N2CCC(CN=C=S)C2)COC1)c1ccccc1 (stereo not given) and answer again. 4.30

Now consider `O=C(NCCCCN=C=S)NC1CCCC1` and answer again. 4.30

Below are some compounds; for each one, tell me its pIC50.
1. Cn1cc(CCN=C=S)c2ccccc21
2. O=S(=O)(CC1(c2ccc(N=C=S)cc2)COC1)c1ccccc1
3. CN1CCC(SC(=S)NCCCCNC(=O)OCc2ccccc2)CC1
4. CN1CCC(SC(=S)NCCCCNC(=O)Nc2ccncc2)CC1
5. CC(C)(C)OC(=O)N1CCC(SC(=S)NCCCCNC(=O)Nc2ccc3ncsc3c2)CC1

5.00
4.40
5.00
4.70
4.50

###

assay: Binding affinity to FLAG/His-tagged Keap1 (unknown origin)/biotinylated full-length FLAG/His/Tev/Avi-tagged Cul3 (unknown origin) expressed in baculovirus infected Sf9 insect cells measured after 1 hr by TR-FRET assay; design: species or system Homo sapiens
Kindly state pIC50 for each of the entries shown.
Numbers only.

Examples with their reported pIC50 follow.
For `CC(C)(C)OC(=O)N1CCC(SC(=S)NCCCCNC(=O)Nc2ccncc2)CC1` , what is its reported pIC50? 4.6

Now consider `CC(=O)NCCS(=O)(=O)CCCCN=C=S` and answer again. 4.2

Now consider [O-][S+](CCCCN=C=S)c1ccccc1 (stereo not drawn) and answer again. 4.3

Now consider C[S+]([O-])CCCCNC(=S)SCCSC(=S)NCCCC[S+](C)[O-] (stereo not drawn) and answer again. 4.3

Below are some compounds; for each one, tell me its pIC50.
1. CS(=O)(=O)N1CCC(CCN=C=S)C1 (stereo not drawn)
2. O=C(NCCCCN=C=S)Nc1cccnc1
3. CN1CCC(SC(=S)NCCCCNC(=O)NC2CCCC2)CC1

[4.3, 4.5, 4.5]

###

assay: Lipophilicity, log D of the compound at pH 7.4 by chromatographic method; type: physicochemical; settings: buffer
Kindly state chromatographic logD for each of the entries shown.
One number for each entry.

For `CN1CCC(SC(=S)NCCCCNC(=O)NC2CCCC2)CC1` , what is its reported chromatographic logD? 2.33

Now consider `CC(C)(C)OC(=O)N1CCC(SC(=O)NCCCCN=C=S)CC1` and answer again. 6.72

Now consider `O=S(=O)(CCCCN=C=S)c1ccccn1` and answer again. 3.85

Below are some compounds; for each one, tell me its chromatographic logD.
1. CS(=O)(=O)N1CCC(CCN=C=S)C1 (stereo unspecified)
2. CC(C)(C)OC(=O)N1CCC(SC(=S)NCCCCNC(=O)OCc2ccccn2)CC1
3. Cl.O=C(NCCCCNC(=S)SC1CCNCC1)Nc1ccncc1

[3.87, 5.67, 0.49]

###

target: Keap1/Nrf2 (Homo sapiens, UniProt Q14145+Q16236); assay: Binding affinity to FLAG/His-tagged Keap1 (unknown origin)/biotinylated full-length FLAG/His/Tev/Avi-tagged NRF2 (unknown origin) expressed in baculovirus infected Sf9 insect cells measured after 1 hr by TR-FRET assay
quantity: log10 of IC50 (log10 of the value in µM)
A value of 2 here means IC50 of 100 in µM, since values are log10.

For `CCNC(=O)N1CCC(SC(=S)NCCCCNC(=O)NCc2ccccc2)CC1` , what is its reported log10 of IC50? 1.80

Below are some molecules; for each one, tell me its log10 of IC50.
1. CC(C)(C)OC(=O)N1CCC(SC(=S)NCCCCNC(=O)NCc2ccccc2)CC1
2. Cc1ccccc1S(=O)(=O)CCCCN=C=S
3. CN1CCC(SC(=S)NCCCCNC(=O)Nc2ccc3c(c2)OCCO3)CC1
4. O=C(NCCCCN=C=S)OCc1ccccc1Cl

[0.90, 1.50, 1.10, 0.70]

Below are some molecules; for each one, tell me its log10 of IC50.
1. O=C(NCCCCN=C=S)Nc1cccnc1
2. O=C(NCCCCN=C=S)Nc1ccc2scnc2c1
3. CC(C)(C)OC(=O)N1CCC(SC(=S)NCCCCNC(=O)Nc2ccncc2)CC1
4. O=C(CCCCN=C=S)NCc1ccccc1
5. O=C(NCCCCN=C=S)c1cccnc1
6. O=C(NCCCCN=C=S)Nc1ccncc1

1: 1.60; 2: 0.70; 3: 1.50; 4: 1.30; 5: 1.70; 6: 1.50
